Data provenance is the Immune Epitope Database (IEDB).

- Test Target: HLA-B*27:05
- Measurement Notes: IEDB peptide-MHC binding, purified MHC/direct/fluorescence; filed as Kd, often an IC50 or EC50 that approximates it; bounds were set here for any values at or beyond the usual limits of such assays
- Experimental Setup: source organism: Vibrio vulnificus YJ016
Measurement Label: Kd

// query Item `IVAQGIAAL` with HLA-B*27:05 - Kd?
// result ≥ 20 µM

---

- Test Target: HLA-B*07:02
- Measurement Notes: IEDB peptide-MHC binding, purified MHC/competitive/radioactivity; filed as Kd, often an IC50 or EC50 that approximates it; bounds were set here for any values at or beyond the usual limits of such assays
- Experimental Setup: source organism: Dengue virus 2 Jamaica/1409/1983
Measurement Label: Kd
Answer format reminder: number followed by unit.

// query So what's the measured Kd for this one? `SPSKLASAIQ`
// result 436 nM
